Numbers sourced from the RNAGym collection of RNA variant scans (doi:10.7554/elife.80360).

Give self-cleavage for every item shown.
B1: HDV Ribozyme (parent)
chain: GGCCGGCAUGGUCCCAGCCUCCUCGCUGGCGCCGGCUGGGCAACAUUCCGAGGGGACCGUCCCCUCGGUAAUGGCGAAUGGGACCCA

# Variants of: B1
# Assay: self-cleavage, relative activity (ratio to wild type); higher = more cleavage; co-transcriptional
Give bare numbers.

Here's what some known entries look like.
1) G28C A43C; 0.0573
2) C62G C86U; 0.923
3) U60G A83C; 0.612
4) C15A G68U; 0.309
5) C57U C64G; 0.946

Go through the list and state self-cleavage for each entry.
1. C36A G68U
2. G35C C66G
3. G31C C63U
4. G29C G55U
5. C32A G67U
6. G11U C33A
7. G29C G76C
8. C63G A70U

OUTPUT:
0.157
0.228
0.369
0.0396
0.232
0.0604
0.0386
0.564

Could I get self-cleavage for every one of these entries?
1. C33A G54A
2. A43C G68A
3. U37C C41G
4. U23G G29U
5. C3U A42U
6. G10U U65C
7. C32U A42G
8. C22G C49U

OUTPUT:
[0.253, 0.268, 1.11, 0, 0.339, 0.831, 0.244, 0.0639]

Give self-cleavage for each of the items listed below.
1. C24G C49U
2. A51U A71C
3. C22U G54U

OUTPUT:
1: 0.115; 2: 0.856; 3: 0.808
